Catalogue of selective drug sensitivity score readings, one per entry.
- Tested on: KASUMI-10
- experimental_protocol: selective drug sensitivity score (sDSS, relative to normal bone marrow) (sDSS (score)); higher = more potent and effective on the cell line relative to normal bone marrow cells;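 also: ALL cell lines in 384-well plates, five doses spanning 10,000-fold, each plate scaled between vehicle and 100 µmol/L benzalkonium chloride controls, sDSS an adapted area-under-curve metric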
- measurement_setup: 72 h
API note: the answer field is a bare number with no unit suffix.

>  <molecule>
Cc1nn(C)c(COc2ccc(N3CCN(S(=O)(=O)N(C)C)CC3)cc2)c1-c1cccc2c(CCCOc3cccc4ccccc34)c(C(=O)O)n(CCN3CCOCC3)c12 (top concentration 50000 nM)

>  <target_system>
KASUMI-10

>  <test_value>
3.86

$$$$
>  <molecule>
COc1cc(OC)cc(N(CCNC(C)C)c2ccc3ncc(-c4cnn(C)c4)nc3c2)c1 [Erdafitinib] (top concentration 1000 nM)

>  <target_system>
KASUMI-10

>  <test_value>
-0.06

$$$$
>  <molecule>
CCS(=O)(=O)c1cccc(-c2cc(C(=O)NC3CCN(C)CC3)c(C)c3[nH]c4ncc(C)cc4c23)c1 [TAK-901] (top concentration 1000 nM)

>  <target_system>
KASUMI-10

>  <test_value>
9.76

$$$$

Field selective drug sensitivity score (KASUMI-10), entry CO[C@@H](C)Cn1c(=O)n(C)c2cnc3ccc(-c4cncc(C(C)(C)O)c4)cc3c21 (top concentration 2500 nM) : -1.02

Field selective drug sensitivity score (KASUMI-10), entry CNc1nc(Nc2cn(C(C)(C)C#N)nc2C)ncc1C(F)(F)F [GNE-0877] (top concentration 1000 nM) : 0

Field selective drug sensitivity score (KASUMI-10), entry Cc1cccc(-c2[nH]c(CNc3ccccc3F)nc2-c2ccc3ncnn3c2)n1 [Vactosertib (TEW-7197)] (top concentration 2500 nM) : -0.5

Field selective drug sensitivity score (KASUMI-10), entry O=C(CCNC(=O)c1ccc(OC(F)(F)F)cc1)N[C@@H]1CCCc2ccccc21 [ML390] (top concentration 50000 nM) : 4.1

Field selective drug sensitivity score (KASUMI-10), entry Cc1ccc(=O)n(-c2ccccc2)c1 [Pirfenidone] (top concentration 10000 nM) : 0

Field selective drug sensitivity score (KASUMI-10), entry C=CCn1c(=O)c2cnc(Nc3ccc(N4CCN(C)CC4)cc3)nc2n1-c1cccc(C(C)(C)O)n1 [AZD1775] (top concentration 10000 nM) : 7.84

Field selective drug sensitivity score (KASUMI-10), entry Cc1cn(-c2cc(NC(=O)c3ccc(C)c(Nc4nccc(-c5cccnc5)n4)c3)cc(C(F)(F)F)c2)cn1 [Nilotinib] (top concentration 10000 nM) : 0

Field selective drug sensitivity score (KASUMI-10), entry Cn1c(=O)n(-c2ccc(C(C)(C)C#N)cc2)c2c3cc(-c4cnc5ccccc5c4)ccc3ncc21 [Dactolisib] (top concentration 1000 nM) : -1.04

Field selective drug sensitivity score (KASUMI-10), entry O=C1Cc2cc(C(=O)NC3C[C@H]4CC[C@@H](C3)N4S(=O)(=O)CC3CCN(CCCC(F)(F)F)CC3)c(Cl)cc2N1 (stereo not given in full) (top concentration 10000 nM) : 0

Field selective drug sensitivity score (KASUMI-10), entry Cc1c(-c2ccc(N3CCc4cccc(C(=O)Nc5nc6ccccc6s5)c4C3)nc2C(=O)O)cnn1CC12CC3CC(CC(C3)C1)C2 (top concentration 1000 nM) : 3.04

Field selective drug sensitivity score (KASUMI-10), entry NCCNc1ccc(NCCN)c2c1C(=O)c1ccncc1C2=O [Pixantrone] (top concentration 10000 nM) : -1.36

Field selective drug sensitivity score (KASUMI-10), entry CN(C)C(=O)c1cc2cnc(Nc3ccc(N4CCNCC4)cn3)nc2n1C1CCCC1 [Ribociclib] (top concentration 10000 nM) : 0.08

Field selective drug sensitivity score (KASUMI-10), entry Cn1ncnc1[C@H]1c2n[nH]c(=O)c3cc(F)cc(c23)N[C@@H]1c1ccc(F)cc1 [Talazoparib] (top concentration 1000 nM) : 3.38

Field selective drug sensitivity score (KASUMI-10), entry CC(C)NC[C@@H](C(=O)N1CCN(c2ncnc3c2[C@H](C)C[C@H]3O)CC1)c1ccc(Cl)cc1 [Ipatasertib] (top concentration 10000 nM) : 0.7

Field selective drug sensitivity score (KASUMI-10), entry FC(F)(F)c1ccc(/C=C/c2nc(COc3ccc(CCCCn4ccnn4)cc3)co2)cc1 [Mubritinib] (top concentration 1000 nM) : -2.24

Field selective drug sensitivity score (KASUMI-10), entry O=C(NOC[C@H](O)CO)c1ccc(F)c(F)c1Nc1ccc(I)cc1F (top concentration 1000 nM) : -2.86

Field selective drug sensitivity score (KASUMI-10), entry C[C@@H]1CN(CC(=O)Nc2ccc3c(c2)Cc2cccc(-c4cc(=O)cc(N5CCOCC5)o4)c2S3)C[C@H](C)O1 (top concentration 25000 nM) : -2.18

Field selective drug sensitivity score (KASUMI-10), entry NC(=O)Nc1cc(-c2cccc(F)c2)sc1C(=O)N[C@H]1CCCNC1 [AZD7762] (top concentration 1000 nM) : 12.9

Field selective drug sensitivity score (KASUMI-10), entry C[C@@H](Oc1cc(-n2cnc3ccc(CN4CCN(C)CC4)cc32)sc1C(N)=O)c1ccccc1C(F)(F)F (top concentration 10000 nM) : 11

Field selective drug sensitivity score (KASUMI-10), entry CC(C)C[C@@H](C(=O)N[C@H](C(=O)OC1CCCC1)c1ccccc1)[C@H](O)C(=O)NO [Tosedostat] (top concentration 10000 nM) : 7.06

Field selective drug sensitivity score (KASUMI-10), entry COc1c(OCCCN2CCOCC2)ccc2c1N=C(NC(=O)c1cnc(N)nc1)N1CCN=C21 [Copanlisib] (top concentration 1000 nM) : -1.32

Field selective drug sensitivity score (KASUMI-10), entry NC(=O)NO [Hydroxyurea] (top concentration 1000000 nM) : 1.86

----------
- Test system: LC4-1
- experimental_protocol: selective drug sensitivity score (sDSS, relative to normal bone marrow) (sDSS (score)); higher = more potent and effective on the cell line relative to normal bone marrow cells
- measurement_setup: 72 h
Catalogue of selective drug sensitivity score readings, one per entry.
API note: the answer field is a bare number with no unit suffix.

# selective drug sensitivity score (compound: N#Cc1ccc(C(c2ccc(C#N)cc2)n2cncn2)cc1 [Letrozole] (top concentration 10000 nM) ) is -0.04

# selective drug sensitivity score (compound: CN(C)Cc1c(C(=O)NCCOc2ccc(C(=O)NO)cc2)oc2ccccc12 [Abexinostat] (top concentration 10000 nM) ) is 4.36

# selective drug sensitivity score (compound: O=c1sn(-c2cccc3ccccc23)c(=O)n1Cc1ccccc1 [Tideglusib] (top concentration 3000 nM) ) is -0.3

# selective drug sensitivity score (compound: O=C(O)c1ccc(O)c2ncccc12 [IOX-1] (top concentration 100000 nM) ) is 3.24

----------
- Test system: COG-LL-402h
- experimental_protocol: selective drug sensitivity score (sDSS, relative to normal bone marrow) (sDSS (score)); higher = more potent and effective on the cell line relative to normal bone marrow cells
- measurement_setup: 72 h
Catalogue of selective drug sensitivity score readings, one per entry.

Reference set, count: 2
>  <compound>
Cc1cccc(-c2[nH]c(CNc3ccccc3F)nc2-c2ccc3ncnn3c2)n1 [Vactosertib (TEW-7197)] (top concentration 2500 nM)

>  <selective drug sensitivity score>
1.1

$$$$
>  <compound>
COc1cc2c(cc1OC(C)C)[C@H](c1ccc(Cl)cc1)N(c1ccc(N(C)C[C@H]3CC[C@H](N4CCN(C)C(=O)C4)CC3)cc1)C(=O)C2 [NVP-CGM097] (top concentration 25000 nM)

>  <selective drug sensitivity score>
12.1

$$$$

# selective drug sensitivity score (compound: COCC1(CO)C(=O)C2CCN1CC2 (stereo unspecified) [APR-246] (top concentration 10000 nM) ) is -1.16

# selective drug sensitivity score (compound: C[C@@H](C(=O)O)c1ccc(-c2ccccc2)c(F)c1 [Tarenflurbil] (top concentration 10000 nM) ) is -0.16

# selective drug sensitivity score (compound: CC[C@]1(O)C[C@H]2CN(CCc3c([nH]c4ccccc34)[C@@](C(=O)OC)(c3cc4c(cc3OC)N(C)[C@H]3[C@@](O)(C(=O)OC)[C@H](OC(C)=O)[C@]5(CC)C=CCN6CC[C@]43[C@@H]65)C2)C1 [Vinblastine] (top concentration 1000 nM) ) is 4.6

# selective drug sensitivity score (compound: NC(=O)NO [Hydroxyurea] (top concentration 1000000 nM) ) is 1.56

----------
- System: KASUMI-9
- experimental_protocol: selective drug sensitivity score (sDSS, relative to normal bone marrow) (sDSS (score)); higher = more potent and effective on the cell line relative to normal bone marrow cells
- measurement_setup: 72 h
Where selective drug sensitivity score equals or exceeds 2, the correct label is Y; where it does not, the label is N.

>  <compound>
CC(C)C[C@@H](C(=O)N[C@H](C(=O)OC1CCCC1)c1ccccc1)[C@H](O)C(=O)NO [Tosedostat] (top concentration 10000 nM)

>  <assigned_category>
Y

$$$$
>  <compound>
CCN(CC)CCOc1ccc(/C(=C(/Cl)c2ccccc2)c2ccccc2)cc1 [Clomifene] (top concentration 10000 nM)

>  <assigned_category>
N

$$$$
>  <compound>
Cn1cc(-c2cnn3c(N)c(Br)c([C@@H]4CCCNC4)nc23)cn1 [MK-8776] (top concentration 2500 nM)

>  <assigned_category>
N

$$$$
>  <compound>
COc1cccc2c1c(O)c(C(=O)N(C)c1ccc(C(F)(F)F)cc1)c(=O)n2C [Tasquinimod] (top concentration 10000 nM)

>  <assigned_category>
N

$$$$
>  <compound>
O=C(/C=C\n1cnc(-c2cc(C(F)(F)F)cc(C(F)(F)F)c2)n1)NNc1ccccn1 [Verdinexor] (top concentration 1000 nM)

>  <assigned_category>
Y

$$$$

Consider the additional compound presented here.
In plain terms: is recorded selective drug sensitivity score at least 2 for Cc1ccc(NC(=O)c2ccc(CN3CCN(C)CC3)cc2)cc1Nc1nccc(-c2cccnc2)n1 [Imatinib] (top concentration 10000 nM) ?
N
